assay: in vitro; conditions: human
measuredMetric: CC50

COC(=O)Nc1nc2ccc(C(=O)c3ccccc3)cc2[nH]1 [Mebendazole]	> 5 µM
